Assay: folding stability dG unfold from chymotrypsin proteolysis; higher = more stable
Entries and their folding stability dG unfold values follow.
Respond numerically; units are kcal/mol and should not be typed.

| monomer.sequence | units.of.measure | endpoint.value |
| --- | --- | --- |
| SALKIEISFPGNAGEVRERVLGREDGSYEVEFLVTFPTPGDGIPSVLRVTYRVDPVSGKIEPRLEPVDASAG [r14_590_TrMRF] | kcal/mol | 3.24 |
| SAMRILIEFDSPEEAEEALRKLVEEAGLVLEEIKVEIAPAKVTTTTPDGKKVTKTKYFALAEIKLSKKESAG [r14_773_TrMRF] | kcal/mol | 2.19 |
| SAGGGPFGIPFPFPIEDPDRLDLVEGLVAELEEFFRSLGAGPLTAERVGDTTYVVLVPFDGKPIVSGSAGGS [r16_703_TrMRF] | kcal/mol | 1.95 |

# folding stability dG unfold of SAGGSAGGSAGGKPKVIVIEGMSLEEIKALLAELPEDVTIVVRLPDGSTRTLTVRLPEPSAGGSAGGSAGGS [r10_514_TrROS_Hall] = 1.13

* * *

Assay: folding stability dG unfold (combined trypsin and chymotrypsin); higher = more stable
property.name: folding stability dG unfold

| monomer.sequence | folding stability dG unfold |
| --- | --- |
| SAGGSAGGSASSPSSPVKVTVTVTAPDSLVKTITVTKTPEGVIDLVLPSDIPSDYKITIIESAGGSAGGSAG [r3_44_JUSTAS] | -0.699 kcal/mol |

Entry SAGGSPWIFVIKIEWEPRDPDGKKKKYEYSIVITATPNQLDELLEQIKKAPPGYKIKEVKIEVFPFSAGGSA [r2_75_TrROS] , folding stability dG unfold reported as 3.82 kcal/mol

Query SAGGMVTIEITDIPEDDPEKAIETAKELVEKIKKEGPPLKVKIKGNTPVFEEVAAELKKLGVETDLESAGGS [r16_450_JUSTAS] yields folding stability dG unfold of < -1 kcal/mol

Per the record, SAGGSATIKEGQVITRTVTDPSTGKEYEVEITIKKVTKYPASPEGILREEYEIEVKKSPKVSPLKLSAGGSA [r15_248_JUSTAS] has folding stability dG unfold of < -1 kcal/mol

Lab note: SAKKVPKIEKIEFIPGPNLVKITIPVPEKDKLLVTIDLKDKKLEFELKKNTSFYFSAKYADIKVSVEKKSAG [r14_96_TrMRF] gave folding stability dG unfold of 3 kcal/mol

* * *

Assay: folding stability dG unfold (combined trypsin and chymotrypsin); higher = more stable
Kind request: treat 1 kcal/mol as inclusive, so folding stability dG unfold at 1 kcal/mol or higher is Criterion met, anything lower is Criterion not met.

Example results:
| monomer.sequence | class.assignment |
| --- | --- |
| SAGGSAGGSGGMMVTITLPPGVPPSVVRAALEPLGVRVEVRPVPPVVPFRYPEPGELVFSPLGSAGGSAGGS [r12_80_JUSTAS] | Criterion not met |
| SAGTIVFSRDELKELGIPEDMTVEEIKQKILDRLKEEGYEVKITKIEVVEVDEEEGRVLVRITIEVKKPSAG [r5_23_TrROS_Hall] | Criterion met |
| SAGGSAPPEWRTIMIPMKPDDVDNAIEELRNELPPGRNINIHLQDPEPGRYFMITIRGNKIEIHFMSAGGSA [r15_257_TrROS] | Criterion met |
| SAGGMPIILLEEKKLPNGEPVYRITLLERDPNDGSWRPIEEDELKTKEEAEERAKAIAEKRGVELLKSAGGS [r16_512_JUSTAS] | Criterion met |
| SAGGSAGGSAMIETTVSFDPSTGTVTTTTTYTDPNGGYTKSSTTVTPVPTPAPPPPAAPNRVSAGGSAGGSA [r18_361_JUSTAS] | Criterion not met |
| SIEFKEGQWFPIREIDNNHIEWKHNNEPYKIPPDEIDEPGDWIRITNGRIPEIRPPPPPPVDPEDAKKKKSA [r9_842_TrROS] | Criterion met |
| SAGGSAGGSAGGMVTIETPDEKYEITPTPEDRVLTKVYKKGKEIIKTKDPNSDKTEILDESAGGSAGGSAGG [r7_683_JUSTAS] | Criterion not met |
| SAGGMKTVNLTYTRYLPDKTLEEAKELAKKDLESRGLKILSLPVSREPGAGVVTVSATVEVAPPSLLSAGGS [r16_287_JUSTAS] | Criterion met |
| SAGGSAGGSKVKIETVENEDGVKFERVVDEETGKTVFLAKNKKTGKLYLFVITPDGEIKVFELSAGGSAGGS [r12_474_TrROS_Hall] | Criterion met |
| SAGGSAGGSELPEGVEVETEPIAEIEITDEDGRKYKISIEAVKIRGPDGKEFLVISVSIEELPSAGGSAGGS [r12_544_TrROS_Hall] | Criterion met |

Quick check, folding stability dG unfold >= 1 kcal/mol? SAGGSAGPLERKVIVRTAPYTSPEEGEAYAEETKLAIASKLPESEKVTVEVTWDPETNTVTATIVSSAGGSA [r15_981_JUSTAS] Criterion not met

Evaluate SAGGSSSSMVVVTLTFPPDVSPEEVIEKIAATPGVGAQPISYDPATGTFTIRVGSTDPKAVEEVLGSAGGSA [r2_305_JUSTAS] : folding stability dG unfold at minimum 1 kcal/mol? Criterion not met

Does folding stability dG unfold meet or surpass 1 kcal/mol for SAGWIMINSPEDAERIVEELRKLLPPGYKIDVEPMPNGSVMIEFENPEEGREIKIHYDRRNGMYWIEPVSAG [r5_358_TrROS] ? Criterion met
